assay: chemical genetic growth profiling, strain panel (AID 1159580);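 also: tested at 20 µM; growth read once vehicle control cultures reached saturation at 30 °C; 1 = growth at the plate median or of vehicle wells; lower values mean less growth of the strain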; settings: S. cerevisiae deletion strains, growth OD, locus YGL173C, strain kem1
Among all 5,500 compounds or so, about 2,000 (36%) were called active. Another 18% or so got no clear call; they are omitted. Rule as the data show it: active = normalized growth mostly below about 0.91 (no sharp cut-off); inconclusive = no clear call, values can overlap the other calls; inactive = mostly above about 0.92. The list shows a part of the results.
Select the correct class. Options are True = active, False = inactive and nothing else.

O=C(/C=C/c1ccc(O)c(O)c1)OC(Cc1ccc(O)c(O)c1)C(=O)O (centres undefined)
False
O=C(/C=C/c1ccc(O)c(O)c1)OCCc1ccccc1
True
CCOC(=O)n1ccn(C)c1=S
False

Alright, here's another compound for you.
Hey, what did the test say about Cc1ccc(C(=O)Nc2ccc(S(=O)(=O)O)c3cc(S(=O)(=O)O)cc(S(=O)(=O)O)c23)cc1NC(=O)c1cccc(NC(=O)Nc2cccc(C(=O)Nc3cc(C(=O)Nc4ccc(S(=O)(=O)O)c5cc(S(=O)(=O)O)cc(S(=O)(=O)O)c45)ccc3C)c2)c1 ?
False

----------
assay: chemical genetic growth profiling, strain panel (AID 1159580);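 also: tested at 20 µM; growth read once vehicle control cultures reached saturation at 30 °C; 1 = growth at the plate median or of vehicle wells; lower values mean less growth of the strain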; conditions: S. cerevisiae deletion strains, growth OD, locus YHR079C, strain IRE1 (second series), active compounds read low
Out of some 5,500 compounds screened, about 2,000 (36%) were called active. Inconclusive results (about 18%) are left out. The list shows a part of the results.
REPORTED METRIC: normalized growth
API note: the answer field is a bare number with no unit suffix.

Recorded results for 6 compounds are shown here.
CC(=O)Oc1cc(OC(C)=O)c2c(c1)O[C@H](c1ccc(OC(C)=O)c(OC(C)=O)c1)[C@@H](OC(C)=O)C2
0.98
CC1(C)CCC[C@@]2(C)C1[C@@H](O)C[C@]1(C)C2CC[C@@H]2[C@@]3(C)CC[C@H](C(C)(C)O)[C@@H]3CC[C@@]21C (some centres not stated)
1.01
O=C(Oc1cc(O)cc2c1C[C@@H](OC(=O)c1cc(O)c(O)c(O)c1)[C@@H](c1cc(O)c(O)c(O)c1)O2)c1cc(O)c(O)c(O)c1
0.79
C=C1CCC2[C@](C)(CO)[C@H](O)CC[C@@]2(C)[C@@H]1C/C=C1/C(=O)OC[C@H]1O (some centres not stated)
1.03
CNCCC(Oc1ccc(C(F)(F)F)cc1)c1ccccc1 (configuration not stated)
0.997
C/C=C(\C)C(=O)O[C@H]1C[C@@H](OC(C)=O)[C@@]2(C(=O)OC)CO[C@@H]3C2[C@]12CO[C@](O)(C(=O)OC)[C@H]2[C@](C)(C12O[C@@]1(C)[C@H]1C[C@@H]2OC2OC=C[C@@]21O)[C@@H]3O (some centres not stated)
0.969

Please look at this compound and report its normalized growth: CCCCCCCCCCC[C@@H](C[C@H]1OC(=O)[C@H]1CCCCCC)OC(=O)[C@@H](CC(C)C)NC=O
1

Retrieve normalized growth measured for COc1cc(OC)c2c(c1)O[C@H](c1cc(OC)c(OC)c(OC)c1)[C@H](OC(=O)c1cc(OC)c(OC)c(OC)c1)C2 and print it.
1

Item C=C1C2CC[C@@]3(C)[C@H](c4ccoc4)OC(=O)C[C@]13O[C@H]1CC(=O)C(C)(C)[C@H](C(OC(C)=O)C(=O)OC)[C@@]21C (some centres not stated) : provide normalized growth
0.997

Note normalized growth for the compound shown: CN1C2C[C@H](OC(=O)[C@H](CO)c3ccccc3)C[C@H]1[C@@H](O)C2
1

Give the value of normalized growth reported for the following: COc1cc(CNC(=O)CCCC/C=C/C(C)C)ccc1O
1

Please report the measured normalized growth for NC(=O)c1ccc[n+]([C@@H]2O[C@H](COP(=O)([O-])OP(=O)(O)OC[C@H]3O[C@@H](n4cnc5c(N)ncnc54)[C@H](OP(=O)(O)O)[C@@H]3O)[C@@H](O)[C@H]2O)c1
1.01

Determine its reported normalized growth: CCCCC[C@H]1C(=O)O[C@H](C)[C@H](NC(=O)c2cccc(NC=O)c2O)C(=O)O[C@@H](C)[C@@H]1OC(=O)CC(C)C
0.943

Give the reported value of normalized growth for this record: CCCCCCCCC(=O)NCc1ccc(O)c(OC)c1
0.985

Look up normalized growth of Oc1cc(O)c2c(c1)O[C@H](c1cc(O)c(O)c(O)c1)[C@H](O)C2 and report it.
1.01

Give the reported value of normalized growth for this record: O=C1C(Cl)=C(Cl)C(=O)C(Cl)=C1Cl
0.91

Supply recorded normalized growth for Oc1cc(O)c2c(c1)O[C@H](c1ccc(O)c(O)c1)[C@H](O)C2 here.
0.975

----------
Below, each of the compounds is paired with its reported normalized growth value.
test: chemical genetic growth profiling, strain panel (AID 1159580);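 also: tested at 20 µM; growth read once vehicle control cultures reached saturation at 30 °C; 1 = growth at the plate median or of vehicle wells; lower values mean less growth of the strain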; settings: S. cerevisiae deletion strains, growth OD, locus YGL086W, strain mad1, active compounds read low
Screen size: about 5,500 compounds; about 2,000 (36%) were called active. Inconclusive results (about 18%) are left out. This is one part of the list.
// keep it numeric: no unit symbol after the value

Sample answers from the record:
COC(=O)c1cc(=O)c(O)c2c(O)c(O)ccc2c1
0.71
C/C=C(\C)C(=O)O[C@H]1C[C@@H](OC(C)=O)[C@@]2(C(=O)OC)CO[C@@H]3C2[C@]12CO[C@](O)(C(=O)OC)[C@H]2[C@](C)(C12O[C@@]1(C)[C@H]1C[C@@H]2OC2OC=C[C@@]21O)[C@@H]3O (some centres not stated)
1
O=S(=O)(O)CCS
0.997
c1ccc2c(c1)sc1ccccc12
0.941
CCN(CC)C(=O)N1CCN(C)CC1
1.02
O=C(O[C@@H]1Cc2c(O)cc(O)cc2O[C@@H]1c1ccc(O)c(O)c1)c1cc(O)c(O)c(O)c1
0.954
CN1C2CCC1CC(OC(c1ccccc1)c1ccccc1)C2 (configuration not stated)
0.951
COc1cc(OC)c2c(c1)O[C@H](c1cc(OC)c(OC)c(OC)c1)[C@H](OC(=O)c1cc(OC)c(OC)c(OC)c1)C2
0.991
CC(=O)Oc1cc(OC(C)=O)c2c(c1)O[C@H](c1ccc(OC(C)=O)c(OC(C)=O)c1)[C@@H](OC(C)=O)C2
0.955
CCCCNC(=O)NS(=O)(=O)c1ccc(C)cc1
1

// fetch normalized growth given entry CC(=O)Oc1cc(OC(C)=O)c2c(c1)O[C@H](c1ccc(OC(C)=O)c(OC(C)=O)c1)[C@H](OC(C)=O)C2
0.997

Determine from records and report normalized growth for C[n+]1c2cc(N)ccc2cc2ccc(N)cc21
0.778

Give the reported normalized growth for this compound. CCCCC[C@H]1C(=O)O[C@H](C)[C@H](NC(=O)c2cccc(NC=O)c2O)C(=O)O[C@@H](C)[C@@H]1OC(=O)CC(C)C
0.923

Read off the recorded normalized growth for CCC1(O)CC(OC2CC(N(C)C)C(OC3CC(O)C(OC4CCC(=O)C(C)O4)C(C)O3)C(C)O2)c2c(cc3c(c2O)C(=O)c2c(O)cccc2C3=O)C1C(=O)OC (configuration not stated)
0.992

Input O=C(O[C@@H]1Cc2c(O)cc(O)cc2O[C@@H]1c1cc(O)c(O)c(O)c1)c1cc(O)c(O)c(O)c1 , output reported normalized growth.
0.776

Give me measured normalized growth, please, for this compound: CC[C@@]1(O)C[C@H](O[C@H]2C[C@H](N(C)C)[C@H](O)[C@H](C)O2)c2c(cc3c(c2O)C(=O)c2c(O)ccc(O)c2C3=O)[C@H]1C(=O)OC
0.281

Please look at this compound and report its normalized growth: O=C(Oc1cc(O)cc2c1C[C@@H](OC(=O)c1cc(O)c(O)c(O)c1)[C@@H](c1cc(O)c(O)c(O)c1)O2)c1cc(O)c(O)c(O)c1
0.431

----------
experiment: chemical genetic growth profiling, strain panel (AID 1159580);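 also: tested at 20 µM; growth read once vehicle control cultures reached saturation at 30 °C; 1 = growth at the plate median or of vehicle wells; lower values mean less growth of the strain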; settings: S. cerevisiae deletion strains, growth OD, locus YML032C, strain rad52, active compounds read low
The whole screen tested about 5,500 compounds, of which about 2,000 (36%) were called active. About 18% were inconclusive and are not listed. Some of the results follow.
REPORTED METRIC: normalized growth
Give the figure only, with no unit attached.

COc1c(N2CCNC(C)C2)c(F)cc2c(=O)c(C(=O)O)cn(C3CC3)c12 (centres undefined)
0.492
O=C1C(Cl)=C(Cl)C(=O)C(Cl)=C1Cl
0.912
C[C@@H]1O[C@@H](O[C@H]2[C@H](Oc3cc(O)c4c(=O)cc(-c5ccc(O)cc5)oc4c3)O[C@H](CO)[C@@H](O)[C@@H]2O)[C@H](O)[C@H](O)[C@H]1O
1.04

// moving on: another record for normalized growth
Please report normalized growth for the following molecule: COc1cc([C@@H]2c3cc4c(cc3C(OC3O[C@@H]5COC(C)O[C@H]5[C@H](O)[C@H]3O)C3COC(=O)[C@@H]32)OCO4)cc(OC)c1O (some centres undefined)
0.982

Where do the numbers come from? From PubChem BioAssay AID1159580.
